Tested on: Quadruplex DNA
Assay: Binding affinity to human G-quadruplex telomeric DNA F25CebT (5'-duplex FAM-AGGGTGGGTGTAAGTGTGGGTGGGT-TAM-3') assessed as stabilization by measuring change in melting temperature at 5 uM by FRET melting assay
Assay type: nucleic-acid assay
Observable: ΔTm (°C)

Use these answered entries as a reference point.
Which ΔTm value belongs to COc1ccc(/N=C/c2ccc3ccc4ccc(/C=N/c5ccc(OC)cc5)nc4c3n2)cc1 ?
0.7

Which ΔTm value belongs to CCCCCC/N=C/c1ccc2ccc3ccc(/C=N/CCCCCC)nc3c2n1 ?
0.7

Which ΔTm value belongs to O=C(N/N=C/c1c(O)ccc2ccccc12)c1ccc2ccc3ccc(C(=O)N/N=C/c4c(O)ccc5ccccc45)nc3c2n1 ?
2.6

Which ΔTm value belongs to CC(C)(C)OC(=O)NCCNC(=O)c1ccc2ccc3ccc(C(=O)NCCNC(=O)OC(C)(C)C)nc3c2n1 ?
0.8

Which ΔTm value belongs to O=C1NCCOCCOCCNC(=O)c2ccc3ccc4ccc1nc4c3n2 ?
0.4

A. OCCNCc1ccc2ccc3ccc(CNCCO)nc3c2n1
B. O=C1NCCNCCNC(=O)c2ccc3ccc4ccc1nc4c3n2
C. CC(C)(C)OC(=O)NCC/N=C/c1ccc2ccc3ccc(/C=N/CCNC(=O)OC(C)(C)C)nc3c2n1
D. NCCNCc1ccc2ccc3ccc(CNCCN)nc3c2n1.O=C(O)C(F)(F)F.O=C(O)C(F)(F)F.O=C(O)C(F)(F)F.O=C(O)C(F)(F)F
E. CC(C)(C)OC(=O)NCCNCc1ccc2ccc3ccc(CNCCNC(=O)OC(C)(C)C)nc3c2n1
Rank order required: ΔTm, descending. Write the labels, ordered according to the request.
D, B, E, C, A
(D: 7.8 °C, B: 1.7 °C, E: 0.9 °C, C: 0.6 °C, A: 0.4 °C)

====

Test system: Quadruplex DNA
Experiment: Binding affinity to human G-quadruplex telomeric DNA F21T (5'-duplex FAM-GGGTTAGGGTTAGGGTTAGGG-TAM-3') assessed as stabilization by measuring change in melting temperature at 5 uM by FRET melting assay
Type: nucleic-acid assay
Observable: ΔTm (°C)

Which ΔTm value belongs to OCC/N=C/c1ccc2ccc3ccc(/C=N/CCO)nc3c2n1 ?
1.1

Which ΔTm value belongs to NCCNCc1ccc2ccc3ccc(CNCCN)nc3c2n1.O=C(O)C(F)(F)F.O=C(O)C(F)(F)F.O=C(O)C(F)(F)F.O=C(O)C(F)(F)F ?
12

Which ΔTm value belongs to CC(C)(C)OC(=O)NCC/N=C/c1ccc2ccc3ccc(/C=N/CCNC(=O)OC(C)(C)C)nc3c2n1 ?
0.6

A. CC(C)(C)OC(=O)NCCNC(=O)c1ccc2ccc3ccc(C(=O)NCCNC(=O)OC(C)(C)C)nc3c2n1
B. O=C1NCCNCCNC(=O)c2ccc3ccc4ccc1nc4c3n2
So which one has the bigger ΔTm here, A or B ? Label of pick, please.
A

====

Tested on: A549
Assay: Antiproliferative activity against human A549 cells assessed as cell viability at 10 uM after 48 hrs by MTT assay
Assay type: functional
Activity calls are given as the source filed them. The calls are words filed in the database; no cut-off is given here.
Observable: Activity

Please state recorded Activity (tested on A549) of O=C1NCCOCCOCCNC(=O)c2ccc3ccc4ccc1nc4c3n2
Active

Please state recorded Activity (tested on A549) of NNC(=O)c1ccc2ccc3ccc(C(=O)NN)nc3c2n1
Active

Please state recorded Activity (tested on A549) of CC(C)(C)OC(=O)NCCNC(=O)c1ccc2ccc3ccc(C(=O)NCCNC(=O)OC(C)(C)C)nc3c2n1
Active

Please state recorded Activity (tested on A549) of O=C1NCCNCCNC(=O)c2ccc3ccc4ccc1nc4c3n2
Active

====

System: Quadruplex DNA
Test: Binding affinity to human G-quadruplex telomeric DNA F25CebT (5'-duplex FAM-AGGGTGGGTGTAAGTGTGGGTGGGT-TAM-3') assessed as stabilization by measuring change in melting temperature at 5 uM by FRET melting assay
Assay type: nucleic-acid assay
Observable: ΔTm (°C)

Use these answered entries as a reference point.
Which ΔTm value belongs to NNC(=O)c1ccc2ccc3ccc(C(=O)NN)nc3c2n1 ?
1.2

Which ΔTm value belongs to OCC/N=C/c1ccc2ccc3ccc(/C=N/CCO)nc3c2n1 ?
0.9

Which ΔTm value belongs to COc1ccc(NCc2ccc3ccc4ccc(CNc5ccc(OC)cc5)nc4c3n2)cc1 ?
3.8

1. CC/N=C/c1ccc2ccc3ccc(/C=N/CC)nc3c2n1
2. NCCNC(=O)c1ccc2ccc3ccc(C(=O)NCCN)nc3c2n1
Quick one: lower ΔTm, 1 or 2 ? Label of pick, please.
1

====

Test system: Quadruplex DNA
Assay: Binding affinity to human G-quadruplex telomeric DNA F21T (5'-duplex FAM-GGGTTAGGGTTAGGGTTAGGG-TAM-3') assessed as stabilization by measuring change in melting temperature at 5 uM by FRET melting assay
Type: nucleic-acid assay
Observable: ΔTm (°C)

Use these answered entries as a reference point.
Please state recorded ΔTm (tested on Quadruplex DNA) of CCCCCC/N=C/c1ccc2ccc3ccc(/C=N/CCCCCC)nc3c2n1
1.1

Please state recorded ΔTm (tested on Quadruplex DNA) of OCCNCc1ccc2ccc3ccc(CNCCO)nc3c2n1
1.2

Please state recorded ΔTm (tested on Quadruplex DNA) of NNC(=O)c1ccc2ccc3ccc(C(=O)NN)nc3c2n1
1.8

Please state recorded ΔTm (tested on Quadruplex DNA) of CCCCCCNCc1ccc2ccc3ccc(CNCCCCCC)nc3c2n1
5.3

Please state recorded ΔTm (tested on Quadruplex DNA) of COc1ccc(/N=C/c2ccc3ccc4ccc(/C=N/c5ccc(OC)cc5)nc4c3n2)cc1
0.8

Please state recorded ΔTm (tested on Quadruplex DNA) of O=C(N/N=C/c1c(O)ccc2ccccc12)c1ccc2ccc3ccc(C(=O)N/N=C/c4c(O)ccc5ccccc45)nc3c2n1
1

Please state recorded ΔTm (tested on Quadruplex DNA) of COc1ccc(NCc2ccc3ccc4ccc(CNc5ccc(OC)cc5)nc4c3n2)cc1
9.2

Please state recorded ΔTm (tested on Quadruplex DNA) of CC/N=C/c1ccc2ccc3ccc(/C=N/CC)nc3c2n1
1.5

Please state recorded ΔTm (tested on Quadruplex DNA) of CC(C)(C)OC(=O)NCCNCc1ccc2ccc3ccc(CNCCNC(=O)OC(C)(C)C)nc3c2n1
1.2

a. NCCNC(=O)c1ccc2ccc3ccc(C(=O)NCCN)nc3c2n1
b. O=C1NCCOCCOCCNC(=O)c2ccc3ccc4ccc1nc4c3n2
So which one has the bigger ΔTm here, a or b ? Label of pick, please.
a
(a: 7.2 °C, b: 0.5 °C)
